# Measurement notes: Viability assay against CHO cells (MTT colorimetric assay)
# Assay type: cell-based, Chinese hamster
# Condition details: Chinese hamster, CHO cells, 1.56e-007 M; 72 h; replicates n = 1, 2, 3; read-out: % viable cells
Starred links: 1 amine or outer side, 2 acyl side, 3 side chain; linkers in the order of their positions; H or OH if unused. Positions of bridges follow the written chain, without caps; N, C: chain ends. Non-standard residues stand in square brackets, D forms with d. Residues, ends and D or L forms follow the SMILES beside them. X4 = CC(C)(C)OC(=O)/N=C(\N)N[C@@H]1C[C@@H](C(=O)[*:2])N([*:1])C1; Trp(2-yl) = O=C([C@H](Cc1c([*:3])[nH]c2ccccc12)N[*:1])[*:2]; Pro(trans-4-guanidino) = N=C(N)N[C@H]1CN[C@H](C(=O)O)C1; Ile(4R-OH,5-OH) = C[C@H]([C@H](N)C(=O)O)[C@@H](O)CO; X5 = COC(=O)N[C@@H]1C[C@@H](C(=O)[*:2])N([*:1])C1; X1 = N#C[C@@H]1C[C@@H](C(=O)[*:2])N([*:1])C1
Listed below: viability at 72 h, 1.56e-07 M values for each entry.
Readout label: viability at 72 h, 1.56e-07 M (%)

Compound	Result units	Assay result
CC[C@H](C)[C@@H]1NC(=O)CNC(=O)[C@@H]2Cc3c([nH]c4ccccc34)SC[C@H](NC(=O)CNC1=O)C(=O)N[C@@H](CC(N)=O)C(=O)N1C[C@H](N/C(N)=N/C(=O)OC(C)(C)C)C[C@H]1C(=O)N[C@@H]([C@@H](C)[C@@H](O)CO)C(=O)N2 [Compound 9, Boc-Gdn-Pro-amanitin] (cyclo(CN[X4][Ile(4R-OH,5-OH)][Trp(2-yl)]GIG); thioether 1-5)	%	87
CC[C@H](C)[C@@H]1NC(=O)CNC(=O)[C@@H]2Cc3c([nH]c4ccccc34)SC[C@H](NC(=O)CNC1=O)C(=O)N[C@@H](CC(N)=O)C(=O)N1C[C@H](NC(=O)OC)C[C@H]1C(=O)N[C@@H]([C@@H](C)[C@@H](O)CO)C(=O)N2 [Compound 32, MeOCONH-Pro-amanitin] (cyclo(CN[X5][Ile(4R-OH,5-OH)][Trp(2-yl)]GIG); thioether 1-5)	%	88
CC[C@H](C)[C@@H]1NC(=O)CNC(=O)[C@@H]2Cc3c([nH]c4ccccc34)SC[C@H](NC(=O)CNC1=O)C(=O)N[C@@H](CC(N)=O)C(=O)N1C[C@H](C#N)C[C@H]1C(=O)N[C@@H]([C@@H](C)[C@@H](O)CO)C(=O)N2 [Compound 4, CN-Pro-amanitin] (cyclo(CN[X1][Ile(4R-OH,5-OH)][Trp(2-yl)]GIG); thioether 1-5)	%	102
CC[C@H](C)[C@@H]1NC(=O)CNC(=O)[C@@H]2Cc3c([nH]c4ccccc34)SC[C@H](NC(=O)CNC1=O)C(=O)N[C@@H](CC(N)=O)C(=O)N1C[C@H](NC(=N)N)C[C@H]1C(=O)N[C@@H]([C@@H](C)[C@@H](O)CO)C(=O)N2 [Compound 7, Gdn-Pro-amanitin] (cyclo(CN[Pro(trans-4-guanidino)][Ile(4R-OH,5-OH)][Trp(2-yl)]GIG); thioether 1-5)	%	88
